Reference for the values: PubChem BioAssay (NCI)

- System: NCI/ADR-RES ovarian
- MEASUREMENT PROTOCOL: NCI tumour cell line growth inhibition, 48 h
MEASUREMENT TYPE: TGI

1) CCN1C(=O)N(CC)C2C1NN=c1s/c(=C\c3ccccc3)c(=O)n12 (centres undefined) | > 100 µM
2) O=C1CSC(/C=C/c2ccccc2)N1c1ccc(-n2c(-c3ccccc3)nc3ccccc3c2=O)cc1 (centres undefined) | > 100 µM
3) CC[C@H](C)[C@H](NC(=O)C12CC(NC(C)=O)(C1)C2)C(=O)N(C)[C@H](C[C@@H](OC(C)=O)c1nc(C(=O)N[C@@H](Cc2ccccc2)C[C@H](C)C(=O)OC)cs1)C(C)C | > 16.7 µM
4) FC(F)(F)C1(C(F)(F)F)C2CCC3(CC(F)(F)C(F)(F)S3)C1C2 (centres undefined) | > 100 µM

----------
- Test system: DMS 114 small cell lung
- MEASUREMENT PROTOCOL: NCI tumour cell line growth inhibition, 48 h
In this section we review reported TGI values for a set of compounds.
MEASUREMENT TYPE: TGI

1. CCOC(=O)N1CCC(=O)C[C@@H]1C/C=C/P1(=O)O[C@H](c2ccccc2)C(C)N1C(C)C (stereo partly specified) | > 100 µM
2. COc1cccc(/C=C2\C(=O)N(C(=O)Cc3ccccc3)N=C2C)c1 | > 100 µM
3. COCC12CC(CC1=O)C1C2ON2c3ccccc3C(=O)C12c1ccccc1 (stereo unspecified) | > 100 µM
4. CCCCCn1cnc2c1S(=O)(=O)N(C)C(NC(=O)c1ccccc1)=N2 | > 100 µM
5. CCOC(=O)C1CC/C(=C(/C#N)C(=O)OC)N1 (stereo unspecified) | > 100 µM
6. CCCCCC(=O)Cc1cc(OC)cc2c1C(=O)Oc1cc(O)c(C(=O)O)c(CC(=O)CCCCC)c1O2 | > 100 µM

----------
- Tested on: M14 melanoma
- MEASUREMENT PROTOCOL: NCI tumour cell line growth inhibition, 48 h
MEASUREMENT TYPE: TGI

1) Cc1cc2c(cc1C)[n+]([O-])c(-c1c(Cl)cccc1Cl)c(N)[n+]2[O-] | > 100 µM
2) CCOc1ccc(NC(=O)CCC(=O)NN)cc1 | > 100 µM
3) NC(N)=NS(=O)(=O)c1ccc(NNc2c3ccccc3nc3c(C(=O)Nc4ccc(S(N)(=O)=O)cc4)cccc23)cc1 | > 100 µM

----------
- System: A498 renal
- MEASUREMENT PROTOCOL: NCI tumour cell line growth inhibition, 48 h
MEASUREMENT TYPE: GI50

1) CC(=O)N[C@@H](Cc1ccc(OP(=O)(O)O)cc1)C(=O)N[C@H]1CCC(=O)N2CCC[C@@H](C(=O)NCc3ccc(O)cc3)N2C1=O | > 25 µM
2) C[C@@H](Oc1cc(-c2cnn(C3CC4(CCCNC4)C3)c2)cnc1N)c1c(Cl)ccc(F)c1Cl (some centres not stated) | 0.532 µM
3) COc1ccc(-n2cc(-c3ccc(OC)c(OC)c3)nc2SCc2ccccc2)cc1Cl | 22.3 µM
4) CN1CCN(c2ccc3nc4c(nc3c2C(F)(F)F)C(=O)c2ncccc2C4=O)CC1 | 1.94 µM
5) Brc1ccc(Br)nn1 | 3.42 µM
6) C=C1C(=O)OC2CC3(C)OC3C3OC3C3=CC(OC3=O)C12 (configuration not stated) | 15.8 µM
7) CS[C@@]1(C(=O)Nc2ccc3[nH]nc(-c4ccc(OC(C)C)nc4)c3c2)CCN(CC(=O)N2CC=C(c3ccc(-c4ncn(C)n4)cc3)CC2)C1 | 0.176 µM
8) C/C(=N\Nc1cccc(Cl)n1)c1ccccn1 | 1.41 µM
9) CN(C)CCOc1nc2ccccc2c2c1-c1ccc(Cl)cc1C2=O | 1.19 µM
10) CCN(CC)c1ccc2nc3c4ccccc4c(=NC(=O)c4ccccc4-c4c5ccc(N(CC)CC)cc5[o+]c5cc(N(CC)CC)ccc45)cc-3oc2c1 | 6.15 µM
11) CCCCCCC1N=C(N)N=C(N)N1c1ccc(Cl)cc1 (configuration not stated) | 7.05 µM
12) Cc1ccc(-c2cc(/C=N/O)on2)cc1 | 41.3 µM

----------
- Test system: SK-MEL-28 melanoma
- MEASUREMENT PROTOCOL: NCI tumour cell line growth inhibition, 48 h; in the data active = GI50 below about 0.43 µM; inactive = the rest
Classes used: active, inactive

1) O=C(NO)c1cnc(N2CCN(S(=O)(=O)c3ccc4ccccc4c3)CC2)nc1 | active
2) CC(=O)N[C@@H](Cc1ccc(OP(=O)(O)O)cc1)C(=O)N[C@H]1CCC(=O)N2CCC[C@@H](C(=O)NCc3ccc(O)cc3)N2C1=O | inactive
3) COC(=O)Nc1nc2ccc(Sc3ccccc3)cc2[nH]1 | active
4) C/C(=N\Nc1cccc(Cl)n1)c1ccccn1 | inactive

----------
Item-by-item account of TGI
- System: SNB-19 CNS
- MEASUREMENT PROTOCOL: NCI tumour cell line growth inhibition, 48 h
MEASUREMENT TYPE: TGI

1. Cc1cccnc1CNC1CC(NCc2ncccc2C)CC(NCc2ncccc2C)C1 (centres undefined) | 4.03 µM
2. CCCCCn1cnc2c1S(=O)(=O)N(C)C(NC(=O)c1ccccc1)=N2 | > 100 µM
3. O=c1cc(-c2nc3ccccc3[nH]2)[nH]c2nc(-c3nc4ccccc4[nH]3)cc(-c3ccc(Cl)cc3)c12 | > 100 µM
4. CCOC(=O)N1CCC(=O)C[C@@H]1C/C=C/P1(=O)O[C@H](c2ccccc2)C(C)N1C(C)C (some centres undefined) | > 100 µM

----------
List of TGI values.
- System: SR leukemia
- MEASUREMENT PROTOCOL: NCI tumour cell line growth inhibition, 48 h
MEASUREMENT TYPE: TGI

1) Cc1onc(-c2c(F)cccc2Cl)c1C(=O)N[C@@H]1C(=O)N2[C@@H]1SC(C)(C)[C@@H]2C(=O)O | > 100 µM
2) COC1=CC(=O)c2ccccc2C1(C)C1=NC(C)(C)CO1 (stereo unspecified) | > 100 µM
3) CC[O-].CC[O-].O=C([CH-]C(=O)c1ccccc1)c1ccccc1.O=C([CH-]C(=O)c1ccccc1)c1ccccc1.[Ti+4] | > 100 µM
4) COc1cc(C2C(C#N)=C(N)Oc3cc4c(cc32)OCO4)cc2c1OCO2 (stereo unspecified) | > 100 µM
5) COc1ccc2[nH]c3c(C)c4cnccc4c(C)c3c2c1 | > 10 µM
6) CC(=O)OCC(=O)C1(O)C(C)CC2C3C=C(C)C4=Cc5c(cnn5-c5ccccc5)CC4(C)C3C(O)CC21C (stereo unspecified) | > 27.2 µM

----------
# maps each entry to its TGI
- Tested on: NCI-H23 lung
- MEASUREMENT PROTOCOL: NCI tumour cell line growth inhibition, 48 h
MEASUREMENT TYPE: TGI (µM)

1) CCOC(=O)c1c(C(F)(F)F)oc2c1ccc1nc3nonc3nc12 | 18.3
2) CCCCCC(=O)Cc1cc(OC)cc2c1C(=O)Oc1cc(O)c(C(=O)O)c(CC(=O)CCCCC)c1O2 | 37.1
3) CC(C)(C)c1cc(C(C)(C)C)c2sc(=S)oc2c1O | 18.9
4) COc1cc2c3c(c1O)C1(C=CC(=O)C=C1)CC3N(C)CC2 (stereo unspecified) | 31.5
5) COc1ccc2c(c1)CC[C@@H]1[C@@H]2CC[C@]2(C)[C@@H](O)/C(=C/c3ccncc3)C[C@@H]12 | 31.7
6) COc1cnc2c(c1)C(=O)c1c-2n(CCCN2CCN(CCO)CC2)c(=O)c2cc([N+](=O)[O-])ccc12 | 3.33
7) COc1ccc(/C(Cl)=C/c2ccc(Cl)c(Cl)c2)cc1 | 63
8) OC(c1ccccc1)c1c(-c2ccccc2)oc(-c2ccccc2)c1C(O)c1ccccc1 (stereo unspecified) | 23.3
9) CCCCCc1c(C)[nH]c(/C=c2\[nH]/c(=C3/C=c4ccccc4=N3)cc2OC)c1C | 3.1
10) COc1ccc(C2C(Cl)C(=O)N2NC(=O)c2ccc(N)cc2)cc1OC (stereo unspecified) | 18.8
11) CC(C)NC(=O)O/N=C1\CCC2[C@@H]3CC=C4C[C@@H](OC(=O)NC(C)C)CC[C@]4(C)C3CC[C@]12C (stereo partly specified) | 3.79
12) O=C(CCO)OCCCCCC/C=C\CCCCCC/C=C\CCCCCCCCOC(=O)CCO | 31.8
13) CCN(CC)c1ccc2nc3c4ccccc4c(=NC(=O)c4ccccc4-c4c5ccc(N(CC)CC)cc5[o+]c5cc(N(CC)CC)ccc45)cc-3oc2c1 | 6.13
14) Oc1[nH]c2ccccc2c1N=NC(=S)N1CCCC1 | 34.5
15) N#CC(C#N)=Cc1ccc(-c2ccc(-c3nc4ccccc4o3)cc2)o1 | 93.8

----------
- System: 786-0 renal
- MEASUREMENT PROTOCOL: NCI tumour cell line growth inhibition, 48 h
MEASUREMENT TYPE: TGI

1) COC(=O)C1=Cc2c(OC)cc(OC)c(OC)c2[C@H](c2cc(OC)c(OC)cc2OC)C1C(=O)OC (stereo not given in full) | > 100 µM
2) CC(C)(C)OC(=O)N/N=C(/N)c1ccccc1 | > 100 µM
3) COc1nc2c(c(=O)n1C)NC(C(O)C(O)CO)C=N2 (stereo not given) | > 10 µM
4) COc1ccccc1OC(=O)/C=C/c1ccccc1 | > 100 µM
5) CC1C(=O)C23OC[C@@]1(C)C1(O)CC[C@@H](C)[C@]21CC3=O (stereo not given in full) | > 100 µM
